# System: U251 CNS
# testSummary: NCI-60 one-dose screen, 48 h
# measurementContext: 10 µM unless noted
About 83,000 compounds went through this panel and 20% of them were active in at least one assay; those are over-represented in the sample as a whole. Active and inactive are the calls of the source. Rule for the calls: active = growth percent below 10; inactive = the rest.
Give your call using only these classes: Y for active, N for inactive

Previously resolved entries follow.
CC(C)(C)c1cc(C=Nc2cccc(C(F)(F)F)c2)c(O)c(C(C)(C)C)c1 : N
C=C(CN1CC=CCC1)[C@@H]1CC[C@]2(CO)CC[C@]3(C)[C@H](CC[C@@H]4[C@@]5(C)CC[C@H](O)C(C)(C)[C@@H]5CC[C@]43C)[C@@H]12 : N
Cc1ccc(-c2nc(C(Cl)Cl)nc3cc(C)nn23)cc1 : Y
Cc1cccc(NC(=O)CSc2nc3ccc([N+](=O)[O-])cc3[nH]2)c1 : N
COc1ccc2nc(SCC(=O)Nc3ccccc3C)[nH]c2c1 : N
CCN1C(=O)N(CC)C2C1NN=c1s/c(=C\c3ccccc3Br)c(=O)n12 (centres undefined) : Y

Req: Hi, do you know how Cn1cc(-c2csc(-c3cn(C(=O)OC(C)(C)C)c4ccccc34)n2)c2ccnc(Cl)c21 came out in this test?
Resp: N

Req: Then O=C(CSc1nnc2sc(Nc3cccc(Cl)c3)nn12)c1ccc(F)cc1 ?
Resp: N

Req: Then CCN(CC)CCCNCc1cc(-c2ccccc2)nc2cc(Cl)ccc12 ?
Resp: N

* * *

# Tested on: RPMI-8226 leukemia
# testSummary: NCI-60 one-dose screen, 48 h
# measurementContext: 10 µM unless noted
This is part of a sample that, as a whole, favours compounds with a hit. Of some 83,000 tested, about 20% had one in any assay. Active and inactive are the calls of the source. Rule for the calls: active = growth percent below 10; inactive = the rest.
Give your call using only these classes: True (active), False (inactive)

Previously resolved entries follow.
N#Cc1c(N2CCOCC2)nc(=S)[nH]c1-c1ccccc1 : False
Cc1ccccc1OCC(O)COc1ccccc1C : False
N#C/C(=C\c1ccc(-c2ccc(Cl)cc2)o1)c1ccc(Cl)cc1 : False

Req: Hi, do you know how Cc1ccc(C(=O)c2ccc(CC(=O)N/N=C/c3ccc(O)cc3O)n2C)cc1 came out in this test?
Resp: False

Req: Then CN1CCN(C(=O)c2cc(-c3ccc4ncnc(N5CCc6cc(F)c(Cl)cc65)c4c3)cnc2N)CC1 ?
Resp: True

Req: Then Cc1cc(C)c(-c2c(O)c(Br)c(-c3c(C)cc(C)c(Br)c3C)c(O)c2Br)c(C)c1Br ?
Resp: False

Req: Then COc1ccc2c(O)c(/C=C3\N=Nc4ccccc43)oc2c1C[C@H]1CCNC[C@H]1F ?
Resp: False

Req: Then Cn1c(=O)c2c(nc(NC3=NS(=O)(=O)c4ccccc43)n2Cc2ccccc2)n(C)c1=O ?
Resp: False

Req: Then Cc1nc2sc(C(=O)Nc3cccc(Cl)c3)c(N)c2cc1C(O)c1ccccc1 (stereo not given) ?
Resp: False

Req: Then O=C1/C(=C/c2ccc(C(F)(F)F)cc2)COc2ccc(O)cc21 ?
Resp: True

* * *

# System: NCI-H460 lung
# testSummary: NCI-60 one-dose screen, 48 h (100 = growth as untreated, 0 = no growth, -100 = all killed)
# measurementContext: 10 µM unless noted
About 83,000 compounds went through this panel and 20% of them were active in at least one assay; those are over-represented in the sample as a whole. Activity calls are given as the source filed them. How the source made its calls: active means growth percent below 10; inactive means the rest.
propertyName: growth

C[C@@H]1O[C@@H](O[C@@H]2C[C@H](c3ccc4c(c3O)C(=O)C3=C(C4=O)[C@@]4(O)C(=O)C[C@](C)(O)C[C@@]4(O)C=C3)O[C@H](C)[C@H]2O)C[C@H](O)[C@@H]1O : 98.5% (inactive)

Req: Item under review: COC(=O)c1c2c(n3ccc(C)cc13)C(=O)c1ccccc1C2=O . Reported growth?
Resp: 4.07% (active)
